Biological target: T1, MLL3_(ePHD6)_(1055–1144) (human, UniProt Q8NEZ4 1055-1144)
T1 chain: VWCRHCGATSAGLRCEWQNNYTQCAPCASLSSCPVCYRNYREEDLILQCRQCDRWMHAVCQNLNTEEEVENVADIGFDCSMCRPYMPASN
Assay: ITC
pKd: −log10 of the molar value. Where no end group is shown, it is not given here. [ ]: non-standard residue; d: D form. Arg(Me) = CNC(=N)NCCC[C@H](N)C(=O)O
propertyName: pKd

{"binder": "GKGGAK[Arg(Me)]HRKV [histone H4 peptide monomethylated at R17]", "testResult": 3.95}
